target: Human 5-HT2A (Homo sapiens); experiment: [125I]DOI radioligand binding, human 5-HT2A; conditions: Ki Human 5-HT2A, [125I]DOI; AVG
Sequence (P28223 whole entry): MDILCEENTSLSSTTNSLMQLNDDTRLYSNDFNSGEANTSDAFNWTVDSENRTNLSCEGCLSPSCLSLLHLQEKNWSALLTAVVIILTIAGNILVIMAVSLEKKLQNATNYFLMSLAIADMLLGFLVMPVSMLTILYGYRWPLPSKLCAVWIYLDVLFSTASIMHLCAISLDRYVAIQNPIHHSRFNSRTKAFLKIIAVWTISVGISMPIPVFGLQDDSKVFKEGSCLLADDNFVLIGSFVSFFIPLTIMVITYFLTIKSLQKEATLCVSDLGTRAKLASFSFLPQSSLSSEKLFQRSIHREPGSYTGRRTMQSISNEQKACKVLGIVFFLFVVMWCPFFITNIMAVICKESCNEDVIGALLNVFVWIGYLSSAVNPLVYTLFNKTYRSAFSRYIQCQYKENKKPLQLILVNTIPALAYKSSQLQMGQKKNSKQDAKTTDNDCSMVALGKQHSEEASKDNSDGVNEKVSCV
MEASURE NAME: Ki (nM)
Field: numeric (nM). Do not append units.

Q. Human 5-HT2A (Homo sapiens) / Ki / CC(C)n1cc2c3c(cccc31)C1CC(C(=O)NCCN3CCN(c4ccccc4)CC3)CN(C)C1C2 (stereo not shown) : value?
A. 32.7

###

test system: distal colon; assay: Functional in vitro assay: antagonism of serotonin contraction of rat distal colon longitudinal muscle; conditions: vs serotonin
# pA2 (-log KB) listing for each entry below
# respond with the number and nothing more

Completed entries (count: 5):
{"columns": ["COMPOUND", "TGT", "pA2 (-log KB)"],
 "data": [
  ["CCc1ccc2[nH]c3c(c2c1)CCNC3Cc1ccc(OC)c(OC)c1 (stereo not drawn)", "distal colon", 6.2],
  ["COc1ccc(CC2NCCc3c2[nH]c2ccc(C)cc32)c(OC)c1OC.Cl (stereo not drawn)", "distal colon", 4.8],
  ["Cc1ccc2c3c([nH]c2c1Cl)CNCC3", "distal colon", 8.3],
  ["Cc1cc(Br)c2[nH]c3c(c2c1)CCNC3", "distal colon", 8.9],
  ["Clc1ccc2[nH]c3c(c2c1)CCNC3", "distal colon", 7.2]
]}

Next:
Q. State the recorded pA2 (-log KB) for this entry: Brc1ccc2[nH]c3c(c2c1)CCNC3
A. 8.2

###

# Kb listing for each entry below
biological target: 5-HT2B receptor (rat stomach fundus) (Rattus norvegicus, UniProt P30994); conditions: rat stomach fundus; vs serotonin; ± standard error; read-out: 5-HT2B (Fundus) -log KB (converted)
Sequence (P30994 whole entry): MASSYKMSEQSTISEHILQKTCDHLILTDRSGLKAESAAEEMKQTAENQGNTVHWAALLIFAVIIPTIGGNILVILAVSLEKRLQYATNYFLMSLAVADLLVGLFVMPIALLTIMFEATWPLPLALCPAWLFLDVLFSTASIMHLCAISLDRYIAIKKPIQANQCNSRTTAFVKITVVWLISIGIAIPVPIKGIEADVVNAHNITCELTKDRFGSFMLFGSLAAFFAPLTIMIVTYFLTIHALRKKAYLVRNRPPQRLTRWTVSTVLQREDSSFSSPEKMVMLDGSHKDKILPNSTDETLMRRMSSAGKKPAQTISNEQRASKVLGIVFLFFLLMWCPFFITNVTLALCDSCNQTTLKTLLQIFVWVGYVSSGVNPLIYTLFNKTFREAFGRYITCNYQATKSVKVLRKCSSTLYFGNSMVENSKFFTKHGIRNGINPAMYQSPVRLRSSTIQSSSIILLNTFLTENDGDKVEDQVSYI
Counter-ions that a name gives are not always drawn.

{"columns": ["COMPOUND", "TGT", "MEASURE NAME", "RECORDED MEASUREMENT"],
 "data": [
  ["COc1c(O)ccc(CC2NCCc3c2[nH]c2ccc(C)cc32)c1Cl (centres unmarked) [Example 37, hydrochloride]", "5-HT2B receptor (rat stomach fundus) (Rattus norvegicus, UniProt P30994)", "Kb", "0.646 nM"]
]}

Q. 5-HT2B receptor (rat stomach fundus) (Rattus norvegicus, UniProt P30994) / Kb / Cc1ccc2[nH]c3c(c2c1)CCNC3C(C)c1cccc2ccccc12 (racemic) : value?
A. ~0.0389 nM

Q. 5-HT2B receptor (rat stomach fundus) (Rattus norvegicus, UniProt P30994) / Kb / COc1ccc(CC2NCCc3c2[nH]c2c(Br)cc(C)cc32)cc1OC (centres unmarked) [Example 4, hydrochloride] : value?
A. 1.2 nM

Q. 5-HT2B receptor (rat stomach fundus) (Rattus norvegicus, UniProt P30994) / Kb / CCC(c1ccc(OC)c(OC)c1)C1NCCc2c1[nH]c1ccc(C)cc21 (racemic) : value?
A. 0.363 nM

Q. 5-HT2B receptor (rat stomach fundus) (Rattus norvegicus, UniProt P30994) / Kb / COc1cc(CC2NCCc3c2[nH]c2ccc(C)cc32)cc(N)c1OC (centres unmarked) [Example 30, dihydrochloride] : value?
A. 1.29 nM

Q. 5-HT2B receptor (rat stomach fundus) (Rattus norvegicus, UniProt P30994) / Kb / COc1ccc(CC2NCCc3c2[nH]c2ccc(C(C)C)cc32)cc1OC (centres unmarked) : value?
A. 3.16 nM

Q. 5-HT2B receptor (rat stomach fundus) (Rattus norvegicus, UniProt P30994) / Kb / COc1cc(CC2NCCc3c2[nH]c2ccc(C)cc32)cc(I)c1OC (centres unmarked) : value?
A. 7.59 nM

Q. 5-HT2B receptor (rat stomach fundus) (Rattus norvegicus, UniProt P30994) / Kb / Brc1ccc2[nH]c3c(c2c1)CCNC3Cc1cccc2ccccc12 (racemic) : value?
A. 1.12 nM

Q. 5-HT2B receptor (rat stomach fundus) (Rattus norvegicus, UniProt P30994) / Kb / CCc1ccc2[nH]c3c(c2c1)CCNC3Cc1ccc(OC)c(OC)c1 (centres unmarked) : value?
A. 0.347 nM

Q. 5-HT2B receptor (rat stomach fundus) (Rattus norvegicus, UniProt P30994) / Kb / COc1ccc(CC2NCCc3c2[nH]c2c(Br)cc(Br)cc32)cc1OC (centres unmarked) : value?
A. 1.66 nM

###

target: rat 5-HT2B receptor (Rattus norvegicus, UniProt P30994); experiment: biochemical; format: binding; details: read-out: Ki Rat 5-HT2B; [3H]Serotonin; 5-HT2B cells; AVG;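 note: displacement of [3H]5-HT from membranes of suspension cells carrying cloned rat 5-HT2B receptor, incubated 15 min at 37 °C or 2 h at 0 °C, filter-bound radioactivity counted by scintillation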
# Ki listing for each entry below
Field: numeric (nM). Do not append units.

{"columns": ["COMPOUND", "TGT", "MEASURE NAME", "RECORDED MEASUREMENT"],
 "data": [
  ["NCc1c[nH]c2ccc(Br)cc12", "rat 5-HT2B receptor (Rattus norvegicus, UniProt P30994)", "Ki", 39.3]
]}

Q. State the recorded Ki for this entry: CCCN(CCC)C1CCc2cccc(-c3ccno3)c2C1 (single isomer, unassigned)
A. 79.3

###

molecular target: 5-HT2B receptor (rat stomach fundus) (Rattus norvegicus, UniProt P30994); settings: rat stomach fundus; vs serotonin; ± standard error; read-out: 5-HT2B (Fundus) -log KB (converted)
Counter-ions that a name gives are not always drawn.
# Kb listing for each entry below
Field: numeric (nM). Do not append units.

Completed entries (count: 6):
{"columns": ["MOLECULE", "UNIT STRING", "Kb"],
 "data": [
  ["Cc1ccc2[nH]c3c(c2c1)CCN[C@H]3Cc1cccc2ccccc12 [Example 64, hydrochloride]", "nM", 0.186],
  ["COc1ccc(CC2NCCc3c2[nH]c2c(C)cccc32)cc1OC (centres unmarked)", "nM", 1],
  ["COc1ccc(CC2NCCc3c2[nH]c2ccc(C)cc32)cc1F (centres unmarked) [Example 34, hydrochloride]", "nM", 0.38],
  ["COc1ccc(CC2c3[nH]c4ccc(C)cc4c3CCN2C)c(Cl)c1OC (centres unmarked) [Example 44, hydrochloride]", "nM", 3.98],
  ["Cc1ccc2[nH]c3c(c2c1)CCNC3CC1CCCCC1 (centres unmarked) [Example 39, hydrochloride]", "nM", 4.79],
  ["COc1ccc(CC2NCCc3c2[nH]c2ccc(Br)cc32)cc1OC (centres unmarked)", "nM", 1.58]
]}

Q. 5-HT2B receptor (rat stomach fundus) (Rattus norvegicus, UniProt P30994) / Kb / COc1ccc(C(C)C2NCCc3c2[nH]c2cc(C)c(C)cc32)cc1OC (racemic) : value?
A. 0.155

###

molecular target: Human 5-HT2B (Homo sapiens); construct: expressed in transfected cells; assay: [3H]Serotonin radioligand binding, human 5-HT2B; settings: [3H]Serotonin; 5-HT2B cells; AVG; read-out: Ki Human 5-HT2B;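 note: competition of tritiated serotonin binding to cell membranes, bound radioactivity on filters counted by liquid scintillation, IC50 from logistic fits converted to Ki with the Cheng-Prusoff equation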
Sequence (P41595 whole entry): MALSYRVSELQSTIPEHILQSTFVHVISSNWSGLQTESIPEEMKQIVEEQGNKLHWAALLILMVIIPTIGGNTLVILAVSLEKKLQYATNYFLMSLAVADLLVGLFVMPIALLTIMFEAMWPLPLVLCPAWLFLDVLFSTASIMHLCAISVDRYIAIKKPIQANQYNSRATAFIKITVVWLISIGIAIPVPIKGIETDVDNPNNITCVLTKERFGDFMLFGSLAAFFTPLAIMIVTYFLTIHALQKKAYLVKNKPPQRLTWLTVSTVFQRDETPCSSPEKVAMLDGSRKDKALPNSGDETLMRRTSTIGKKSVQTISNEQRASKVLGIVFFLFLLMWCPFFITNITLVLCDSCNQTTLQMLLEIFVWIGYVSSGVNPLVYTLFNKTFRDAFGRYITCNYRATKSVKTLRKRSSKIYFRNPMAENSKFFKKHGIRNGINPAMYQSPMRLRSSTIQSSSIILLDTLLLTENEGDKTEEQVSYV
MEASURE NAME: Ki (nM)
Field: numeric (nM). Do not append units.

Completed entries (count: 7):
{"columns": ["COMPOUND", "TGT", "Ki [nM]"],
 "data": [
  ["CCc1ccc2[nH]c3c(c2c1)CCNC3Cc1cccc2ccccc12 (centres unmarked)", "Human 5-HT2B (Homo sapiens)", 2.08],
  ["COc1ccc(C(C)C2NCCc3c2[nH]c2ccc(C(C)C)cc32)cc1OC (centres unmarked)", "Human 5-HT2B (Homo sapiens)", 3.46],
  ["Cc1ccc2[nH]c3c(c2c1)CCNC3Cc1cccc2ccccc12 (centres unmarked)", "Human 5-HT2B (Homo sapiens)", 0.74],
  ["Cc1ccc2[nH]c3c(c2c1)CCNC3C(C)c1cccc2ccccc12 (centres unmarked)", "Human 5-HT2B (Homo sapiens)", 1.29],
  ["COc1ccc(C(C)C2NCCc3c2[nH]c2ccc(C)cc32)cc1OC (single isomer, unassigned)", "Human 5-HT2B (Homo sapiens)", 5.55],
  ["CCCN(CCC)C1CCc2cccc(C(=O)C(C)(C)C)c2C1 (single isomer, unassigned)", "Human 5-HT2B (Homo sapiens)", 4750],
  ["CCCN(CCC)[C@@H]1CCc2cccc(-c3ccon3)c2C1", "Human 5-HT2B (Homo sapiens)", 784]
]}

Next:
Q. State the recorded Ki for this entry: Cc1ccc2c3c([nH]c2c1I)CNCC3
A. 10.2

###

molecular target: UniProt:P30994; conditions: rat stomach fundus; vs serotonin; ± standard error; read-out: 5-HT2B (Fundus) -log KB (converted)
Where a name gives a salt, the structure may show the parent alone.
MEASURE NAME: log10(Kb) (log10 of the value in nM)
Reminder: these figures are log10 of reported Kb, in nM before transformation.

Completed entries (count: 5):
{"columns": ["MOLECULE", "RECORDED MEASUREMENT"],
 "data": [
  ["Cc1ccc2[nH]c3c(c2c1F)CCNC3Cc1cccc2ccccc12 (racemic) [Example 59]", -0.69],
  ["CC(C)c1ccc2[nH]c3c(c2c1)CCNC3Cc1cccc2ccccc12 (racemic) [Example 62]", 0.42],
  ["COc1ccc(CC2NCCc3c2[nH]c2c(C)ccc(C)c32)cc1OC (stereo not shown) [Example 12, hydrochloride]", -0.29],
  ["COc1ccc(CC2NCCc3c2[nH]c2c3ccc3ccccc32)cc1OC (stereo not shown) [Example 10]", -0.22],
  ["COc1ccc(CC2NCCc3c2[nH]c2cc(C)cc(C)c32)cc1OC (stereo not shown) [Example 15, hydrochloride]", -0.34]
]}

Next:
Q. State the recorded log10(Kb) for this entry: COc1ccc(CC2NCCc3c2[nH]c2ccc(C)cc32)c(OC)c1OC.Cl (stereo not shown) [Example 22, hydrochloride]
A. 0.79
